# target_or_test_system: Adenosine receptor A3 (Homo sapiens, UniProt P0DMS8)
# Sequence (P0DMS8 whole entry): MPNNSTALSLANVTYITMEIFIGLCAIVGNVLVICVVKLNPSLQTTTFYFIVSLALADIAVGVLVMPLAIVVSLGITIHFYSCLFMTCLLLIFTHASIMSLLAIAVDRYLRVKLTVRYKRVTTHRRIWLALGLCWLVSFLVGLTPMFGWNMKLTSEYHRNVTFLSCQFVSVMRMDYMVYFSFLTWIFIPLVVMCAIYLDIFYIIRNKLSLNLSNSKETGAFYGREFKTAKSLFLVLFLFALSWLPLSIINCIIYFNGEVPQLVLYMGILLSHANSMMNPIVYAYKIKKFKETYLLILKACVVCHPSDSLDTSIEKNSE
# experiment_description: Displacement of [3H]HEMADO from human adenosine A3 receptor expressed in HEK293 cell membranes after 90 mins
pIC50: −log10 of the molar value.
observed_property: pIC50

given_smiles: CCCn1c(Oc2cccc(OC)c2)nc2nc(C3CCCC3)[nH]c2c1=O
reported_relation: =
val: 6.37
--
given_smiles: CCCn1c(Oc2ccc(F)c(F)c2)nc2nc(C3CCCC3)[nH]c2c1=O
reported_relation: <
val: 5.00

* * *

# target_or_test_system: CYP3A4 (Homo sapiens)
# Sequence (P08684 whole entry): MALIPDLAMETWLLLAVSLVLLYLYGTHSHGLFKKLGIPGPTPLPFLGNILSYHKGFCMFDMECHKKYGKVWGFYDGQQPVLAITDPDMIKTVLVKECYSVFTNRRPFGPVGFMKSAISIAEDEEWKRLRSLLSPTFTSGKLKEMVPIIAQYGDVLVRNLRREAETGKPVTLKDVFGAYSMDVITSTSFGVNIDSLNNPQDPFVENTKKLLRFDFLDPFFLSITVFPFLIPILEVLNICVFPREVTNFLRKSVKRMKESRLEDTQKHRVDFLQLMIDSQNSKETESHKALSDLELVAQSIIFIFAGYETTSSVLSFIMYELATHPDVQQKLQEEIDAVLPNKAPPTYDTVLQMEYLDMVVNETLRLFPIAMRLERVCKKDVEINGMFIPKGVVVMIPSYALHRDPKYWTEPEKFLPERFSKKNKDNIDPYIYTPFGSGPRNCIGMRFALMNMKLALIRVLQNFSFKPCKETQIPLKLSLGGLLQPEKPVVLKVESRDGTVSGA
# experiment_description: Inhibition of CYP3A4 (unknown origin) at 5 uM relative to control
# Format: ADME
observed_property: inhibition at 5 µM (%)

compound: CCCn1c(-c2cccc(OC)c2)nc2nc(C3CCCC3)[nH]c2c1=O
val: 5
--
compound: CCCn1c(Oc2cccnc2C)nc2nc(C3CCCC3)[nH]c2c1=O
val: 0
--
compound: CCCn1c(OC2CCC(O)C2)nc2nc(C3CCCC3)[nH]c2c1=O (centres undefined)
val: 0
--
compound: CCCn1c(Oc2ccc(F)c(F)c2)nc2nc(C3CCCC3)[nH]c2c1=O
val: 34

* * *

Measured clearance, listed per entry.
# experiment_description: Clearance in Wistar rat at 3 mg/kg, iv by LC-Ms/MS analysis
# Format: ADME, organism-based
# condition_label: in vivo

compound: CCCn1c(Oc2ccc(F)c(F)c2)nc2nc(C3CCCC3)[nH]c2c1=O
clearance / mL/min/kg: 13.6
--
compound: CCCn1c(OC2CCC(O)C2)nc2nc(C3CCCC3)[nH]c2c1=O (centres undefined)
clearance / mL/min/kg: 48
--
compound: CCCn1c(Oc2cccnc2C)nc2nc(C3CCCC3)[nH]c2c1=O
clearance / mL/min/kg: 55
--
compound: CCCn1c(-c2cccc(OC)c2)nc2nc(C3CCCC3)[nH]c2c1=O
clearance / mL/min/kg: 39.2

* * *

Measured inhibition, listed per entry.
# target_or_test_system: Adenosine receptor A2a (Homo sapiens)
# Sequence (P29274 whole entry): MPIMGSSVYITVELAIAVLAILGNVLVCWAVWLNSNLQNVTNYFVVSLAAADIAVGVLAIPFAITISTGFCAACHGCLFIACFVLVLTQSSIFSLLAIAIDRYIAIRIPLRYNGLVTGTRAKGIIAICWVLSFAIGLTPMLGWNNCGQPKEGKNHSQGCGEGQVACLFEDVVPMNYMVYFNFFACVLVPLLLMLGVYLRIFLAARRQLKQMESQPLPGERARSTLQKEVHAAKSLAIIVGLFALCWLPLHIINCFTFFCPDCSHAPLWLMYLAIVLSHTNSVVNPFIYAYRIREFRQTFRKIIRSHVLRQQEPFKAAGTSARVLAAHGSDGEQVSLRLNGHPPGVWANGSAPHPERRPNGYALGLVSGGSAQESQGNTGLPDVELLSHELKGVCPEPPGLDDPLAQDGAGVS
# experiment_description: Displacement of [3H]ZM241385 from human adenosine A2A receptor expressed in HEK293 cell membranes at 1 uM after 90 mins relative to control

given_smiles: CCCn1c(Oc2cccc(O)c2)nc2nc(C3CCCC3)[nH]c2c1=O
endpoint_unit: %
inhibition: 81

given_smiles: CCCn1c(Oc2cccc3cc[nH]c23)nc2nc(C3CCCC3)[nH]c2c1=O
endpoint_unit: %
inhibition: 25

given_smiles: CCCn1c(-c2ccc(C(F)(F)F)cc2)nc2nc(C3CCCC3)[nH]c2c1=O
endpoint_unit: %
inhibition: 0

given_smiles: CCCn1c(Oc2cncc(Cl)c2)nc2nc(C3CCCC3)[nH]c2c1=O
endpoint_unit: %
inhibition: 22

* * *

# target_or_test_system: Adenosine receptor A2b (Homo sapiens) (UniProt P29275)
# Sequence (whole entry): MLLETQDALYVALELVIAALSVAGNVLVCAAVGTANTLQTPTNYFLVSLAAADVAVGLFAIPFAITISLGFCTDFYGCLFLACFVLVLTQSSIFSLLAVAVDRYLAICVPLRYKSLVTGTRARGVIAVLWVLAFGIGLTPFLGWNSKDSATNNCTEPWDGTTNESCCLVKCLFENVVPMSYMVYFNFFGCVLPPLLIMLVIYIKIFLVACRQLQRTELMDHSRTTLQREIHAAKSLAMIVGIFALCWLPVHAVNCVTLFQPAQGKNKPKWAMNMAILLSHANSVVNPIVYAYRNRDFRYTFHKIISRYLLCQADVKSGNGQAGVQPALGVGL
# experiment_description: Displacement of [3H]MRS-1754 from human adenosine A2B receptor expressed in HEK293 cell membranes at 1 uM after 90 mins relative to control
observed_property: inhibition

molecule: CCCn1c(OC2CCC(O)C2)nc2nc(C3CCCC3)[nH]c2c1=O (stereo not drawn)
observed_property: inhibition
val: 35 to 41%
//
molecule: CCCn1c(NCCO)nc2nc(C3CCCC3)[nH]c2c1=O
observed_property: inhibition
val: 31%
//
molecule: CCCn1c(NCc2ccc(C(F)(F)F)cc2)nc2nc(C3CCCC3)[nH]c2c1=O
observed_property: inhibition
val: 0%
//
molecule: CCCn1c(OC2CCOCC2)nc2nc(C3CCCC3)[nH]c2c1=O
observed_property: inhibition
val: 56%
//
molecule: CCCn1c(-c2cccc(O)c2)nc2nc(C3CCCC3)[nH]c2c1=O
observed_property: inhibition
val: 100%
//
molecule: CCCn1c(NCC(=O)O)nc2nc(C3CCCC3)[nH]c2c1=O
observed_property: inhibition
val: 9%
//
molecule: CCCn1c(-c2cccc(C(F)(F)F)c2)nc2nc(C3CCCC3)[nH]c2c1=O
observed_property: inhibition
val: 14%
//
molecule: CCCn1c(Nc2cccc(F)c2)nc2nc(C3CCCC3)[nH]c2c1=O
observed_property: inhibition
val: 16%
